Origin of values: the Human Domainome abundance scans (Beltran et al. 2025)

B1: Membrane-associated guanylate kinase, WW and PDZ domain-containing protein 2, residues 601 to 682; numbered along this chain, Q86UL8 (parent)
chain: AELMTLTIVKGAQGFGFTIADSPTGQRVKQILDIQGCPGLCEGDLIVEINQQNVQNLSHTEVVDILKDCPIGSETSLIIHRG

Variants of: B1
method: abundance fitness (aPCA) (normalised: wild type 0, dead -1); higher = more abundant; growth selection in yeast, the domain comes from the species named
settings: Homo sapiens
Here the recorded abundance fitness is given for each entry.
reported-endpoint: abundance fitness

sequence_variant=C69V reported_result=-0.03
sequence_variant=G25N reported_result=-0.162
sequence_variant=R27S reported_result=-0.158
sequence_variant=P70C reported_result=-0.315
sequence_variant=Q26K reported_result=0.038
sequence_variant=V47I reported_result=-0.165
sequence_variant=Q30A reported_result=-0.052
sequence_variant=Q51H reported_result=-0.016
sequence_variant=N56L reported_result=-0.051
sequence_variant=I71D reported_result=-0.101
sequence_variant=I65P reported_result=-1.32
sequence_variant=D64H reported_result=0.195
sequence_variant=Q26T reported_result=-0.007
sequence_variant=C37T reported_result=-0.05
sequence_variant=Q26D reported_result=-0.176
sequence_variant=K67R reported_result=0.034
sequence_variant=S76I reported_result=-0.118
sequence_variant=T18N reported_result=0.001
sequence_variant=N56Y reported_result=0.074
sequence_variant=N56Q reported_result=-0.099
sequence_variant=P70H reported_result=-0.107
sequence_variant=E61V reported_result=-0.132
